- MEASURED ON: CN (Rattus norvegicus, UniProt P63100+P63329)
- TEST METHOD NOTES: CN phosphatase colorimetric assay with RII phosphopeptide as substrate
- Assay type: biochemical
Ends that are not written are not given here.
ENDPOINT LABEL: IC50

ESILLVPPTWPKPLV [NFATc2-ILLVP]: 130 µM

Please examine the following record next.
// IC50 lookup, key: GSSHLAPPNPDKQFL [RCAN1-HLAPP] 131 µM
